# key: entry, value: pIC50
Target: human A2A adenosine receptor (Homo sapiens (Human))
Sequence (P29274 whole entry): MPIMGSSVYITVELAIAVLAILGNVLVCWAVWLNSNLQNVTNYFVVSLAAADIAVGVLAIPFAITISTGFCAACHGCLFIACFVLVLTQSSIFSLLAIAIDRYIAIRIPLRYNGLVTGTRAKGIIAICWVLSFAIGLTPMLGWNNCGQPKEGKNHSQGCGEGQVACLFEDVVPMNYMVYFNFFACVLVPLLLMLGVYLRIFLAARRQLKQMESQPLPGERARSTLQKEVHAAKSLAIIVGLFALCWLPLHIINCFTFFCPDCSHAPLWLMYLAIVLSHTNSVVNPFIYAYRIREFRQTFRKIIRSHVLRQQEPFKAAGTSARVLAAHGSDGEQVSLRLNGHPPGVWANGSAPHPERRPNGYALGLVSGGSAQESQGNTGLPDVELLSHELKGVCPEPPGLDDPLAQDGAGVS
pIC50: −log10 of the molar value.
Measured Metric: pIC50

Molecule: COc1cccc2c1nc(N)n1nc([C@H]3C[C@@H](c4ccc(C(C)(C)N)c(C)n4)C3)nc21 (single isomer, unassigned)
Measured Metric: pIC50
Measured: 8.32

Molecule: COc1cccc2c1nc(N)n1nc([C@H]3C[C@H](c4ncc5c(n4)CCNC5)C3)nc21 (single isomer, unassigned)
Measured Metric: pIC50
Measured: 7.78

Molecule: COc1cccc2c1nc(N)n1nc([C@H]3C[C@H](c4ccc(CN5CCNCC5)cc4)C3)nc21
Measured Metric: pIC50
Measured: 8.80

Molecule: COc1cccc2c1nc(N)n1nc([C@H]3C[C@H](c4ccc([C@H](N)C(F)F)cn4)C3)nc21 (single isomer, unassigned)
Measured Metric: pIC50
Measured: 8.59

Molecule: Cc1nc(C(C)(C)N)cnc1[C@H]1C[C@H](c2nc3c4cccc(Cl)c4nc(N)n3n2)C1
Measured Metric: pIC50
Measured: 8.54

Molecule: COc1cccc2c1nc(N)n1nc([C@H]3C[C@@H](c4ccc([C@@H](N)C(F)F)cn4)C3)nc21 (single isomer, unassigned)
Measured Metric: pIC50
Measured: 8.09

Molecule: Cc1nc(C(C)(C)N)cnc1[C@H]1C[C@@H](c2nc3c4cccc(F)c4nc(N)n3n2)C1
Measured Metric: pIC50
Measured: 6.83

Molecule: COc1cccc2c1nc(N)n1nc([C@H]3C[C@H](c4ccc(C(N)C(F)(F)F)cc4)C3)nc21 (stereo partly drawn)
Measured Metric: pIC50
Measured: 8.57

Molecule: COc1cccc2c1nc(N)n1nc([C@H]3C[C@@H](c4ncc(C5(O)COC5)cc4C)C3)nc21
Measured Metric: pIC50
Measured: 8.74

Molecule: COc1cccc2c1nc(N)n1nc([C@@H]3C[C@H]3c3ccc(C(C)(C)O)cc3)nc21
Measured Metric: pIC50
Measured: 7.76

Molecule: COc1cccc2c1nc(N)n1nc([C@H]3C[C@H](c4ccc(C(C)(C)N)cn4)C3)nc21
Measured Metric: pIC50
Measured: 8.70

Molecule: COc1cccc2c1nc(N)n1nc([C@H]3C[C@H](c4ncc(C5(O)COC5)cc4C)C3)nc21
Measured Metric: pIC50
Measured: 9.30

Molecule: COc1cccc2c1nc(N)n1nc([C@H]3C[C@@H](c4ccc(C(C)(C)N)cn4)C3)nc21
Measured Metric: pIC50
Measured: 8.37

Molecule: COc1cccc2c1nc(N)n1nc([C@H]3C[C@@H](c4cnc(N5CCN[C@H](C)C5)c(C)c4)C3)nc21
Measured Metric: pIC50
Measured: 9.15

Molecule: COc1cc(F)cc2c1nc(N)n1nc(C3CC(c4ccc(C(C)(C)N)cn4)C3)nc21 (stereo not drawn)
Measured Metric: pIC50
Measured: 8.21
